assay-system: PI3Kα (Homo sapiens (Human), UniProt P42336)
Sequence (P42336 whole entry): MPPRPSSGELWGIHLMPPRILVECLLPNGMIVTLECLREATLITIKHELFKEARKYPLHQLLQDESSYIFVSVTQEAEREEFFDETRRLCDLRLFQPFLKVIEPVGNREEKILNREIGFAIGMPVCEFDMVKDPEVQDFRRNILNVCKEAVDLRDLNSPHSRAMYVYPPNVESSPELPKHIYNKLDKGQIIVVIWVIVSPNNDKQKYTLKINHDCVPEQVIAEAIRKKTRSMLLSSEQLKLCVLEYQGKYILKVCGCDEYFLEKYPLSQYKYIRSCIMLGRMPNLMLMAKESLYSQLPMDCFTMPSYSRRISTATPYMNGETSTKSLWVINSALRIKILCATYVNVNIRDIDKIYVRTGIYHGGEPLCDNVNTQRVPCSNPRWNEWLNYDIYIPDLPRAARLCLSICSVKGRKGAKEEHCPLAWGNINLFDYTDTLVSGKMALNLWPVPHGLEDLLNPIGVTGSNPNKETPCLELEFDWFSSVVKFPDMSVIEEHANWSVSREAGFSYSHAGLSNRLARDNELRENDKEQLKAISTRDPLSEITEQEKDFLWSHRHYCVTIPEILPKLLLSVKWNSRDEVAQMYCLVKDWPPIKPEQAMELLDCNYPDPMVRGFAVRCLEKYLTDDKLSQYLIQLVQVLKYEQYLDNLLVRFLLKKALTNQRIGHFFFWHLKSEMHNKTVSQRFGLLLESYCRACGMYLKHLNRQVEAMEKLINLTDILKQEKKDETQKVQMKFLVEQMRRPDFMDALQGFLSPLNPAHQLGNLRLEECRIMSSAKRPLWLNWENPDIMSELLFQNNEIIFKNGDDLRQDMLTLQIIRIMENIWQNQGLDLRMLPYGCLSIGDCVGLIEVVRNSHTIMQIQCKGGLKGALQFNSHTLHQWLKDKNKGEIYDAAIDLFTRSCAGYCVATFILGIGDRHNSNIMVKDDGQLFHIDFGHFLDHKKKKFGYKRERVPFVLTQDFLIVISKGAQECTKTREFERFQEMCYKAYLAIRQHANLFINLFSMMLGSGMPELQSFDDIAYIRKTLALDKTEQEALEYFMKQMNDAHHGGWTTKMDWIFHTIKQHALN
Sequence (P27986 whole entry partner): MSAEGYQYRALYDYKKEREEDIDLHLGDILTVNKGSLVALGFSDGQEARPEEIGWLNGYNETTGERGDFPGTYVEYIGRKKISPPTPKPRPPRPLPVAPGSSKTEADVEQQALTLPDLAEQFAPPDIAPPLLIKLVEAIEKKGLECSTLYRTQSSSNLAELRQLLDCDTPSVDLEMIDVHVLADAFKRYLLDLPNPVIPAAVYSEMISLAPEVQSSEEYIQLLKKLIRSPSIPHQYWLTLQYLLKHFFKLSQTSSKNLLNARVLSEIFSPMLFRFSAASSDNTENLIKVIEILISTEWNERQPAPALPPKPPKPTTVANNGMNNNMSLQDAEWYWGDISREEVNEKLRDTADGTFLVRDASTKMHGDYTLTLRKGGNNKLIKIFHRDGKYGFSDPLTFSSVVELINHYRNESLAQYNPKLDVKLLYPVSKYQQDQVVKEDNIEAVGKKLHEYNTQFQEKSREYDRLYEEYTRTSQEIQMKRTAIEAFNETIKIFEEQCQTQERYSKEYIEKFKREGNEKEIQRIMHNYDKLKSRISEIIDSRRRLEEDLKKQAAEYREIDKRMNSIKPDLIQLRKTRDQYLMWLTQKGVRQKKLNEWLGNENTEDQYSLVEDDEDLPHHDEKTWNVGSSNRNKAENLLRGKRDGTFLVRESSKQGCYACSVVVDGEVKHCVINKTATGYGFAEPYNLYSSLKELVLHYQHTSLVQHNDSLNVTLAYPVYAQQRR
assay-remarks: Inhibition of PI3Kα (ADP-Glo kinase activity assay, ATP to ADP conversion)
Type: biochemical
condition-notes: 25 μM PIP2:PS, 60 μM ATP, 30 min reaction, luminescence
Decision: PI3Ka IC50 compared against 500 nM; not below it gives satisfied, below it gives not satisfied.

Q) Answer whether PI3Ka IC50 of Nc1ncc(-c2cc(N3CCOCC3)cc(S(=O)(=O)c3ccccc3)c2)cn1 is greater than or equal to 500 nM.
A) satisfied

Q) Answer whether PI3Ka IC50 of N#Cc1ccc(S(=O)(=O)c2cc(-c3cnc(N)nc3)cc(N3CCOCC3)c2)cc1 is greater than or equal to 500 nM.
A) not satisfied

Q) Answer whether PI3Ka IC50 of O=C1COc2cc(-c3cc(N4CCOCC4)cc(S(=O)(=O)Cc4ccc(F)cc4)c3)ccc2N1 is greater than or equal to 500 nM.
A) satisfied

Q) Answer whether PI3Ka IC50 of Nc1ncc(-c2cc(N3CCOCC3)cc(S(=O)(=O)c3ccccc3)n2)cn1 is greater than or equal to 500 nM.
A) satisfied

Q) Answer whether PI3Ka IC50 of O=S(=O)(Cc1ccc(F)cc1)c1cc(-c2cccc(O)c2)cc(N2CCOCC2)c1 is greater than or equal to 500 nM.
A) satisfied

Q) Answer whether PI3Ka IC50 of Nc1cc(Cl)c(-c2cc(N3CCOCC3)cc(S(=O)(=O)[C@@H]3CCOC3)c2)cn1 is greater than or equal to 500 nM.
A) not satisfied

Q) Answer whether PI3Ka IC50 of Nc1ccc(-c2cc(N3CCOCC3)cc(S(=O)(=O)[C@@H]3CCOC3)c2)c(C(F)(F)F)n1 is greater than or equal to 500 nM.
A) satisfied

Q) Answer whether PI3Ka IC50 of N#Cc1cccc(CS(=O)(=O)c2cc(-c3cnc(N)nc3)cc(N3CCOCC3)c2)c1 is greater than or equal to 500 nM.
A) not satisfied

Q) Answer whether PI3Ka IC50 of Nc1ncc(-c2cc(C(=O)c3ccccc3Cl)cc(N3CCOCC3)n2)cn1 is greater than or equal to 500 nM.
A) not satisfied

Q) Answer whether PI3Ka IC50 of O=S(=O)(c1cc(-c2cnc(NC3CC3)nc2)cc(N2CCOCC2)c1)C1CCOC1 (centres unmarked) is greater than or equal to 500 nM.
A) satisfied

Q) Answer whether PI3Ka IC50 of Nc1ncc(-c2cc(N3CCOCC3)cc(S(=O)(=O)C(F)(F)c3ccccc3)c2)cn1 is greater than or equal to 500 nM.
A) not satisfied

Q) Answer whether PI3Ka IC50 of Nc1ncc(-c2cc(C(F)(F)C3CCOCC3)cc(N3CCOCC3)n2)cn1 is greater than or equal to 500 nM.
A) not satisfied

Q) Answer whether PI3Ka IC50 of CC1CN(c2cc(S(=O)(=O)c3ccccc3)cc(-c3cnc(N)nc3)n2)CC(C)O1 (centres unmarked) is greater than or equal to 500 nM.
A) not satisfied

Q) Answer whether PI3Ka IC50 of Nc1ncc(-c2cc(C(F)(F)c3ccccc3)cc(N3CCOCC3)n2)cn1 is greater than or equal to 500 nM.
A) not satisfied

Q) Answer whether PI3Ka IC50 of Nc1ncc(-c2cc(C(=O)C3CCOC3)cc(N3CCOCC3)n2)cn1 (centres unmarked) is greater than or equal to 500 nM.
A) not satisfied

Q) Answer whether PI3Ka IC50 of CC(=O)N1CCC(S(=O)(=O)c2cc(-c3cnc(N)nc3)cc(N3CCOCC3)c2)CC1 is greater than or equal to 500 nM.
A) not satisfied

Q) Answer whether PI3Ka IC50 of CC(C)C(=O)N1CC(S(=O)(=O)c2cc(-c3cnc(N)nc3)cc(N3CCOCC3)c2)C1 is greater than or equal to 500 nM.
A) not satisfied
